Hey, just so you know, these numbers are from paper PMC4010472.

Test Target: human COX-1 (Homo sapiens)
Sequence (P23219 24-599): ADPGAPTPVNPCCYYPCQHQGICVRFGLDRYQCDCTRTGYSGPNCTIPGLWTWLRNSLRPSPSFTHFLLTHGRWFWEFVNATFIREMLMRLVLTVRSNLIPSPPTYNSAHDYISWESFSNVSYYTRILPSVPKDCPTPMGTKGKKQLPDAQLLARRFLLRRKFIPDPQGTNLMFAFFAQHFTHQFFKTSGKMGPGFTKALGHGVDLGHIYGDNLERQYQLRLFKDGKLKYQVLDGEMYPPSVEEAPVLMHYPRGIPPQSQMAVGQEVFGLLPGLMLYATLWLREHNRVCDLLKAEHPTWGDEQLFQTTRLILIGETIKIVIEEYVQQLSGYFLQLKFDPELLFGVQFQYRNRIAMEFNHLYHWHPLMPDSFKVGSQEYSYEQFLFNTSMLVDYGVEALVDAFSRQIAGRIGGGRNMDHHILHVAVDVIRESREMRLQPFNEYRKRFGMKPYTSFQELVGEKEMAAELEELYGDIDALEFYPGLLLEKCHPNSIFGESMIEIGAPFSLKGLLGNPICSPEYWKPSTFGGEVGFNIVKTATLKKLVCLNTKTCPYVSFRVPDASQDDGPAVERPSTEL
Property Measured: pIC50
Answers are plain numbers, as −log10 of the molar value.

// returns reported pIC50 for input Nc1c(CC(=O)O)cccc1C(=O)c1ccccc1 [Amfenac, amfenac]
7.82

###

Experiment Summary: in vivo
Assay Conditions: Kbl:JW, rabbit, in vivo, topical or ocular, 30 µL of 0.1% eye drops
Property Measured: half-life (h)
One number for each entry, in h.

// returns reported half-life for input Nc1c(CC(=O)O)cccc1C(=O)c1ccc(Br)cc1
2.34

###

Test Target: human COX-2 (Homo sapiens, UniProt P35354)
Sequence (P35354 18-604): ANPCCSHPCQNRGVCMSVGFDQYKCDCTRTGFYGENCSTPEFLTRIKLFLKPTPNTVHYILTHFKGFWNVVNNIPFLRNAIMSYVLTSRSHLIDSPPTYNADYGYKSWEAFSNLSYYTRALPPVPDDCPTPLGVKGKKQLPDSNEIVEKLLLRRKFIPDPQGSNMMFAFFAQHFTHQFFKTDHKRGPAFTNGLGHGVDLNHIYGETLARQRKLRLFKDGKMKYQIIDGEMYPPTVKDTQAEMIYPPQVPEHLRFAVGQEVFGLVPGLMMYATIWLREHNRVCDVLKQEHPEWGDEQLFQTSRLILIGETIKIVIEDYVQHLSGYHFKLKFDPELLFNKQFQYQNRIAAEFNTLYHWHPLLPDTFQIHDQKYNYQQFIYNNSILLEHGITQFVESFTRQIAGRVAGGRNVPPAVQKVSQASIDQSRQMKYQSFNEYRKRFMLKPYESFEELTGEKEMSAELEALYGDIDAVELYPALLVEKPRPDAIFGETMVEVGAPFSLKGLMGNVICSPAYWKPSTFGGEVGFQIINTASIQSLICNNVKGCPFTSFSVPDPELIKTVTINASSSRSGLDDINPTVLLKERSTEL
Experiment Summary: COX-2 inhibitory activity, human recombinant COX-2, PGE2 EIA
Assay Conditions: human recombinant COX-2, 0.3 µM arachidonic acid, PGE2 EIA; read-out: IC50 COX-2, [95% Confidence interval]
Property Measured: IC50 (nM)
Answers are plain numbers, in nM.

{"columns": ["Compound", "Test Target", "IC50, nM"],
 "data": [
  ["Nc1c(CC(=O)O)cccc1C(=O)c1ccc(Br)cc1 [Bromfenac]", "human COX-2 (Homo sapiens, UniProt P35354)", 7.45]
]}

Let us move to another entry and its IC50.
// returns reported IC50 for input Nc1c(CC(=O)O)cccc1C(=O)c1ccccc1 [Amfenac, amfenac]
20.4
